Molecular target: GST-14-3-3
Test: biotinylated peptide on streptavidin-agarose beads, pull-down, trypsin digest, MALDI-MS, ion m/z1245.7
*: point of attachment. Biotin = O=C1N[C@H]2[C@H](CS[C@H]2CCCCC(=O)*)N1
VALUE_KIND: signal size
Please state the value as a number alone, without comment.

Req: Return reported signal size; argument: Biotin-SGSGPRPLRRESEI-OH (SMILES CC[C@H](C)[C@H](NC(=O)[C@H](CCC(=O)O)NC(=O)[C@H](CO)NC(=O)[C@H](CCC(=O)O)NC(=O)[C@H](CCCNC(=N)N)NC(=O)[C@H](CCCNC(=N)N)NC(=O)[C@H](CC(C)C)NC(=O)[C@@H]1CCCN1C(=O)[C@H](CCCNC(=N)N)NC(=O)[C@@H]1CCCN1C(=O)CNC(=O)[C@H](CO)NC(=O)CNC(=O)[C@H](CO)NC(=O)CCCC[C@@H]1SC[C@@H]2NC(=O)N[C@@H]21)C(=O)O) [Kir2.1 biotinylated peptide (Biotin-…-COOH)]
Resp: 400
